System: NCI-H322M lung
Test Protocol: NCI-60 one-dose screen, 48 h (100 = growth as untreated, 0 = no growth, -100 = all killed)
Measurement Conditions: 10 µM unless noted
This is part of a sample that, as a whole, favours compounds with a hit. Of some 83,000 tested, about 20% had one in any assay.
Property Measured: growth (%)
Reply numerically in %, unit not repeated.

{"columns": ["Molecule", "growth (%)"],
 "data": [
  ["CCNC(=O)c1[nH]cc(-c2ccc(OC)cc2)c1-c1cc(OC)cc(OC)c1", 97.7],
  ["O=c1[nH]c(=O)[nH]c(=S)[nH]1", 95.6],
  ["CN(C)C(C(N)=O)c1ccc(Cl)cc1 (stereo unspecified)", 103],
  ["COc1cc(-c2cc(=O)oc3cc(O)ccc23)cc(OC)c1OC", 96.7],
  ["Clc1ccc2c(c1)c(-c1ccccc1)nc1nncn12", 114]
]}

Now for a further molecule.
growth lookup needed for Clc1ccc(N2N=C(c3cccc(Nc4ccncc4)c3)CC2c2ccccc2)cc1 (stereo unspecified) , thanks.
92.7

* * *

Tested on: MALME-3M melanoma
Test Protocol: NCI-60 one-dose screen, 48 h (100 = growth as untreated, 0 = no growth, -100 = all killed)
Measurement Conditions: 10 µM unless noted
The panel holds about 83,000 compounds, 20% with a hit somewhere; the sample as a whole holds those more often.
Decide using growth: a value greater than or equal to 40% is Satisfied, a smaller one is Not satisfied.

{"columns": ["Molecule", "Group Label"],
 "data": [
  ["CC(=O)c1cc2c(N)c(C(=O)Nc3cncc4ccccc34)sc2nc1C", "Satisfied"]
]}

Could you verify whether the entry NC(=O)CN1CCN(c2ccccc2Cl)CC1 shows growth of no less than 40%?
Satisfied

Could you verify whether the entry C[C@@H]1CN(Cc2ccc(/C=C/c3n[nH]c4ccc5nc(-c6cn[nH]c6C(F)(F)F)c6c(c5c34)CCCC6)cc2)C[C@H](C)O1 shows growth of no less than 40%?
Satisfied

Could you verify whether the entry CC(=O)N1c2ccccc2NC2=C(C(=O)N(C)C2(C)C)C1C (stereo not given) shows growth of no less than 40%?
Satisfied

Could you verify whether the entry CCOC(=O)C1=C(C)NC(C)=C(C(=O)OCC)C1c1cc(Br)c(O)c(OC)c1 shows growth of no less than 40%?
Not satisfied

* * *

System: OVCAR-8 ovarian
Test Protocol: NCI-60 one-dose screen, 48 h
Measurement Conditions: 10 µM unless noted
About 83,000 compounds went through this panel and 20% of them were active in at least one assay; those are over-represented in the sample as a whole. Activity calls are given as the source filed them. The calls were made as follows: active = growth percent below 10; inactive = the rest.
Hello, when you answer, please use one of the following outcomes: true (1) for active, false (0) for inactive

A selection of reference data follows.
{"columns": ["Compound", "Experimental Target", "Group Label"],
 "data": [
  ["CNC(=O)Nc1ccc(-c2nc(N3CCOCC3)nc3c2cnn3C2CCOCC2)cc1", "OVCAR-8 ovarian", "true (1)"],
  ["Cn1ncc2c(Nc3ccccc3Cl)nc(Cl)nc21", "OVCAR-8 ovarian", "false (0)"],
  ["c1cnc2nc3c(cc2c1)oc1ccccc13", "OVCAR-8 ovarian", "false (0)"],
  ["COc1cc2nc(-c3ccc(C(F)(F)F)cc3)cc(OCCCN3CCC(O)CC3)c2cc1OC", "OVCAR-8 ovarian", "false (0)"],
  ["CN(C)C(=O)OCc1nc2c(N3CCOCC3)nc(-c3ccccc3)nc2n1C", "OVCAR-8 ovarian", "true (1)"]
]}

Given N#Cc1ccc(-c2ccc3c(c2)NC(=O)/C3=C\c2ccc[nH]2)cc1 , state the outcome it received in this test.
false (0)

Given Cc1ccc(O)c(C(=O)O)c1 , state the outcome it received in this test.
false (0)

Given COc1ccc2nc(N=Nc3c(O)ccc4ccccc34)sc2c1 , state the outcome it received in this test.
false (0)

Given COc1ccc(NC(=O)c2sc3nc(C)c(C(O)c4ccc(OC)cc4)cc3c2N)cc1 (stereo unspecified) , state the outcome it received in this test.
false (0)

Given CC(C)(C)CC(C)(C)Nc1c(-c2ccc3c(c2)OCO3)nc2cnccn12 , state the outcome it received in this test.
false (0)

Given Cc1ccc(/C=C/C(=O)c2ccc(N)cc2)c(C)c1 , state the outcome it received in this test.
false (0)

Given CC(=O)[C@@H]1CC[C@]2(C(N)=O)CC[C@]3(C)[C@H](CC[C@@H]4[C@@]5(C)CCC(=O)C(C)(C)[C@@H]5CC[C@]43C)[C@@H]12 , state the outcome it received in this test.
false (0)

Given CCCCCCCCOC(=O)c1ccc(O)c(OC)c1 , state the outcome it received in this test.
false (0)

Given CCNC(=O)c1[nH]cc(-c2ccc(OC)cc2)c1-c1cc(OC)c(OC)c(OC)c1 , state the outcome it received in this test.
false (0)

Given CC(O)(CO)c1ccccc1 (stereo unspecified) , state the outcome it received in this test.
false (0)

Given c1ccc(-c2nnc(Nc3ccc4c(c3)OCCO4)o2)c(NCc2ccncc2)c1 , state the outcome it received in this test.
false (0)

Given CC(C)CN(C(=O)c1ccc(Cl)cc1)c1c(N)n(CC(C)C)c(=O)[nH]c1=O , state the outcome it received in this test.
false (0)

Given CC(N)C(=O)NNc1n[nH]c(=S)n1N (stereo unspecified) , state the outcome it received in this test.
false (0)

Given COc1cc2c(cc1[N+](=O)[O-])-c1ccc([N+](=O)[O-])cc1/C2=N\O , state the outcome it received in this test.
false (0)

Given CC(C)NC(=O)N1C(=O)CCC1NNC(=O)c1ccc([N+](=O)[O-])cc1 (stereo unspecified) , state the outcome it received in this test.
false (0)

* * *

System: M14 melanoma
Test Protocol: NCI-60 one-dose screen, 48 h
Measurement Conditions: 10 µM unless noted
The panel holds about 83,000 compounds, 20% with a hit somewhere; the sample as a whole holds those more often. The source made the active and inactive calls. How the source made its calls: active means growth percent below 10; inactive means the rest.
Hello, when you answer, please use one of the following outcomes: 1.0 for active, 0.0 for inactive

{"columns": ["Compound", "Experimental Target", "Group Label"],
 "data": [
  ["C=C(C)[C@@H]1CC[C@]2(C(=O)NCCCN(CCC#N)CCC#N)CC[C@]3(C)[C@H](CC[C@@H]4[C@@]5(C)CCC(=O)C(C)(C)[C@@H]5CC[C@]43C)[C@@H]12", "M14 melanoma", 0.0],
  ["CC1NC(=S)NC(=O)/C1=C/c1cc(=O)oc2c1ccc1ccccc12 (stereo not drawn)", "M14 melanoma", 0.0],
  ["O=C1Nc2cc(-c3ccncc3)ccc2/C1=C/c1ccc[nH]1", "M14 melanoma", 0.0]
]}

Given CCCCCCCCCCN=C(N)N=C(N)N , state the outcome it received in this test.
0.0

Given COc1ccc(/C=C2\COc3ccc(-c4ccccc4)cc3C2=O)cc1O , state the outcome it received in this test.
0.0

Given C=C(C)[C@@H]1CC[C@]2(C(=O)O)CC[C@]3(C)[C@H](CC[C@@H]4[C@@]5(C)C[C@@H](CC#Cc6ccc(Br)cc6)C(=O)C(C)(C)[C@@H]5CC[C@]43C)[C@@H]12 , state the outcome it received in this test.
1.0

Given CN1CCN(CC#CCNC(=O)[C@]23CCC(C)(C)C[C@H]2C2=CC[C@@H]4[C@@]5(C)Cc6c([nH]c7ccccc67)C(C)(C)[C@@H]5CC[C@@]4(C)[C@]2(C)CC3)CC1 , state the outcome it received in this test.
0.0

Given Cc1[nH]n(-c2cccc(Cl)c2)c(=O)c1/C=C1\C=Nc2ccc(Br)cc21 , state the outcome it received in this test.
0.0

* * *

System: HCT-15 colon
Test Protocol: NCI-60 one-dose screen, 48 h
Measurement Conditions: 10 µM unless noted
Compounds without any hit were thinned out: in the full panel of roughly 83,000, 20% have a hit. Activity calls are given as the source filed them. Rule for the calls: active = growth percent below 10; inactive = the rest.
Hello, when you answer, please use one of the following outcomes: y (active), n (inactive)

A selection of reference data follows.
{"columns": ["Molecule", "Group Label"],
 "data": [
  ["O=C(Cc1ccc(/C=C/C(=O)c2ncc[nH]2)cc1)Nc1ccc(C(F)(F)F)cc1", "y"],
  ["c1cnc2nc3c(cc2c1)oc1ccccc13", "n"],
  ["O=C(O)c1cn(C2CC2)c2cc(N3CCN(C(=O)C[n+]4cccc5ccccc54)CC3)c(F)cc2c1=O", "n"]
]}

Given COc1ccc(C(=O)c2cc3c(N)c(C(=O)Nc4cccc5ccccc45)sc3nc2C)cc1 , state the outcome it received in this test.
n

Given Clc1nc(Nc2ccccc2)nc(Nc2ccccc2)n1 , state the outcome it received in this test.
n

Given C=C(C)[C@@H]1CC[C@]2(C=O)CC[C@]3(C)[C@H](CC[C@@H]4[C@@]5(C)CCCNC(C)(C)[C@@H]5CC[C@]43C)[C@@H]12 , state the outcome it received in this test.
n

Given COc1ccc(-c2nc(SC)nc(N3CCOCC3)c2C#N)cc1 , state the outcome it received in this test.
n

Given O=C(Nc1sc2c(c1C(=O)O)CCCC2)c1cccc(C(F)(F)F)c1 , state the outcome it received in this test.
n

Given COc1ccc(-c2nc(SCC(C)C)nc(N/N=C(/C)c3ccc(OC)c(OC)c3)c2C#N)cc1 , state the outcome it received in this test.
n

Given O=C1/C(=C\c2cn(Cc3ccccc3)c3ccc(Br)cc23)c2ccccc2N1c1c(Cl)cccc1Cl , state the outcome it received in this test.
n

Given O=S(=O)(NCCCNc1nccc(-c2c(-c3cccc(O)c3)nc3occn23)n1)c1ccc(F)cc1 , state the outcome it received in this test.
n

Given Cn1c(COC(=O)NCCN2CCOCC2)nc2c(N3CCOCC3)nc(-c3ccccc3)nc21 , state the outcome it received in this test.
y

Given O=C(N/N=C/c1ccc(F)cc1)c1ccccc1Nc1cccc(C(F)(F)F)c1 , state the outcome it received in this test.
n

Given NC(=O)c1cccc(-c2cc(C(N)=O)ccc2Cl)c1 , state the outcome it received in this test.
n

Given C/C(=C(/c1ccccc1)c1ccc(OCC(O)CNCCN2CCOCC2)cc1)c1ccccc1 (centres undefined) , state the outcome it received in this test.
y

Given CCCCCCCCOc1ccc(/C=N/Nc2cc(C)nc3ccc(Cl)cc23)cc1 , state the outcome it received in this test.
y

Given O=C(Nc1nc2ccc(C(=O)N3CCN(c4ccc(Cl)c(Cl)c4)CC3)cc2s1)c1ccc(NCCc2ccccc2)c([N+](=O)[O-])c1 , state the outcome it received in this test.
n

Given COc1cc2c(cc1[N+](=O)[O-])-c1ccc([N+](=O)[O-])cc1/C2=N/NC(N)=S , state the outcome it received in this test.
n

Given COc1ccc(-c2c[nH]c(C(=O)O)c2-c2cc(OC)c3c(c2OC)OCO3)cc1 , state the outcome it received in this test.
n

Each recorded value in this set is attributed to PubChem BioAssay (NCI).
